molecular target: Melanocortin receptor 5 (Homo sapiens); experiment: Agonist activity at human MC5R expressed in HEK293 cells assessed as induction of intracellular cAMP accumulation at 10 uM after 3 mins relative to MT-2; type: functional, cell-based
Sequence (P33032 whole entry): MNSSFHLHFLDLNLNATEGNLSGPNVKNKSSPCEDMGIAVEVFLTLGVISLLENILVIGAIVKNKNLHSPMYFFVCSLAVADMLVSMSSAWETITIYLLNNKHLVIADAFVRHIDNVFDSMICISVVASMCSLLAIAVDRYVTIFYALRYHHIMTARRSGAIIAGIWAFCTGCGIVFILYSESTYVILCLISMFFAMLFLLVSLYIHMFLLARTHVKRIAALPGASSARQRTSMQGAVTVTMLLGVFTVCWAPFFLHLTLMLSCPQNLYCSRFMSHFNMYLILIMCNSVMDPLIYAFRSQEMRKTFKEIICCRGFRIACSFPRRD
Bridge positions count the residues as written; N and C are the ends. Square brackets hold non-standard residues; d marks the D form. Peptide text beside a SMILES is read from it. d2Nal = N[C@H](Cc1ccc2ccccc2c1)C(=O)O; Ac5c = NC1(C(=O)O)CCCC1; Ac4c = NC1(C(=O)O)CCC1; Aib = CC(C)(N)C(=O)O
Quantity Name: max activation (%)

Below: 4 molecules and their reported max activation.
[
  {
    "Molecule": "N=C(N)NCCC[C@@H]1NC(=O)[C@@H](Cc2ccc3ccccc3c2)NC(=O)[C@H](Cc2c[nH]cn2)NC(=O)C2(CCCCC2)NC(=O)C[C@@H](C(N)=O)NC(=O)[C@H](Cc2c[nH]c3ccccc23)NC1=O",
    "Unit Info": "%",
    "max activation": 100
  },
  {
    "Molecule": "N=C(N)NCCC[C@@H]1NC(=O)[C@@H](Cc2ccccc2)NC(=O)[C@H](Cc2c[nH]cn2)NC(=O)C2(CCCCC2)NC(=O)CC[C@@H](C(N)=O)NC(=O)[C@H](Cc2c[nH]c3ccccc23)NC1=O",
    "Unit Info": "%",
    "max activation": 100
  },
  {
    "Molecule": "N=C(N)NCCC[C@@H]1NC(=O)[C@@H](Cc2ccccc2)NC(=O)[C@H](Cc2c[nH]cn2)NC(=O)C2(CCC2)NC(=O)C[C@@H](C(N)=O)NC(=O)[C@H](Cc2c[nH]c3ccccc23)NC1=O",
    "Unit Info": "%",
    "max activation": 0
  },
  {
    "Molecule": "CC1(C)NC(=O)C[C@@H](C(N)=O)NC(=O)[C@H](Cc2c[nH]c3ccccc23)NC(=O)[C@H](CCCNC(=N)N)NC(=O)[C@@H](Cc2ccccc2)NC(=O)[C@H](Cc2c[nH]cn2)NC1=O ([Aib]H[dF]RWD-NH2; lactam N-6)",
    "Unit Info": "%",
    "max activation": 100
  }
]

a. N=C(N)NCCC[C@@H]1NC(=O)[C@@H](Cc2ccc3ccccc3c2)NC(=O)[C@H](Cc2c[nH]cn2)NC(=O)C2(CCC2)NC(=O)C[C@@H](C(N)=O)NC(=O)[C@H](Cc2c[nH]c3ccccc23)NC1=O
b. N=C(N)NCCC[C@@H]1NC(=O)[C@@H](Cc2ccccc2)NC(=O)[C@H](Cc2c[nH]cn2)NC(=O)C2(CCCC2)NC(=O)CC[C@@H](C(N)=O)NC(=O)[C@H](Cc2c[nH]c3ccccc23)NC1=O ([Ac5c]H[dF]RWE-NH2; lactam N-6)
c. CC1(C)NC(=O)C[C@@H](C(N)=O)NC(=O)[C@H](Cc2c[nH]c3ccccc23)NC(=O)[C@H](CCCNC(=N)N)NC(=O)[C@@H](Cc2ccc3ccccc3c2)NC(=O)[C@H](Cc2c[nH]cn2)NC1=O ([Aib]H[d2Nal]RWD-NH2; lactam N-6)
Please order the records by their reported max activation, lowest number first. Submit the labels in the order that the ranking request calls for.
b, c, a
(b: 0%, c: 24%, a: 100%)

1. N=C(N)NCCC[C@@H]1NC(=O)[C@@H](Cc2ccc3ccccc3c2)NC(=O)[C@H](Cc2c[nH]cn2)NC(=O)C2(CCCC2)NC(=O)CC[C@@H](C(N)=O)NC(=O)[C@H](Cc2c[nH]c3ccccc23)NC1=O ([Ac5c]H[d2Nal]RWE-NH2; lactam N-6)
2. N=C(N)NCCC[C@@H]1NC(=O)[C@@H](Cc2ccccc2)NC(=O)[C@H](Cc2c[nH]cn2)NC(=O)C2(CCC2)NC(=O)CC[C@@H](C(N)=O)NC(=O)[C@H](Cc2c[nH]c3ccccc23)NC1=O ([Ac4c]H[dF]RWE-NH2; lactam N-6)
Quick one: lower max activation, 1 or 2 ? Reply briefly: the label of your chosen item.
1
